Reference source: patent US9439436B2

melting point: recorded values
reported metric: melting point

> print(dat)
                                   compound  reported.metric        reading
1  CCNC(=O)NCCc1c[nH]c2ccccc12 [Compound 10g, 1-(2-(1H-indol-3-yl)ethyl)-3-ethylurea]    melting point  109 to 112 °C
2                        CCNC(=S)NCCn1nccn1    melting point    91 to 93 °C
3  CCNC(=O)N1CCc2ccccc21 [Compound 6g, N-ethylindoline-1-carboxamide]    melting point  111 to 113 °C
4  CC(C)CCC[C@@H](C)C1CCC2[C@@H]3CC=C4C[C@@H](OC(=O)N5CCCc6ccccc65)CC[C@]4(C)[C@H]3CC[C@]12C (stereo partly shown)    melting point  107 to 110 °C
